Data provenance is patent US10159265B2.

Provide the reported N-NH3 concentration of each item.
Tested on: "in vitro" ruminal fluid cultures
method.notes: Ammonia (N-NH3) concentration in "in vitro" ruminal fluid cultures
Type: cell-based, calves
experimental.parameters: 72 h
Quick note: give the figure in mg/L, leave out the unit.

Would you kindly share the measured N-NH3 concentration for COc1ccc([C@@H]2CC(=O)c3c(O)cc(O[C@@H]4O[C@H](CO[C@@H]5O[C@@H](C)[C@H](O)[C@@H](O)[C@H]5O)[C@@H](O)[C@H](O)[C@H]4O)cc3O2)cc1O ? 323.11

Would you kindly share the measured N-NH3 concentration for COc1ccc([C@@H]2CC(=O)c3c(O)cc(O[C@@H]4O[C@H](CO)[C@@H](O)[C@H](O)[C@H]4O[C@@H]4O[C@@H](C)[C@H](O)[C@@H](O)[C@H]4O)cc3O2)cc1O ? 339.17

Would you kindly share the measured N-NH3 concentration for COc1ccc([C@@H]2CC(=O)c3c(O)cc(O[C@@H]4O[C@H](CO)[C@@H](O)[C@H](O)[C@H]4O[C@@H]4O[C@@H](C)[C@H](O)[C@@H](O)[C@H]4O)cc3O2)cc1 ? 318.15
